Experiment: Pharmacokinetic parameters (Tmax, AUClast, Cmax) of DD217 in phase II trial patients
Type: in vivo, human (patients undergoing knee replacement surgery)
Details: human, plasma, oral, 60 mg/day; ABCB1 rs2032582 T/T (n 5); read-out: Cmax (SD)
result type: Cmax (ng/mL)
Number only, in ng/mL; omit the unit.

(Q) Looking for the measured Cmax of CC(=N)N(C)c1ccc(C(=O)Nc2ccc(C)cc2C(=O)Nc2ccc(Cl)cn2)cc1.Cl , can you help?
(A) 1.74

---

Experiment: Pharmacokinetic parameters (Tmax, AUClast, Cmax) of DD217 in phase II trial patients
Format: in vivo, human (patients undergoing knee replacement surgery)
Conditions: human, plasma, oral, 60 mg/day; ABCB1 rs2032582 T/G (n 9); read-out: Tmax (SD)
result type: Tmax (h)
Number only, in h; omit the unit.

(Q) Looking for the measured Tmax of CC(=N)N(C)c1ccc(C(=O)Nc2ccc(C)cc2C(=O)Nc2ccc(Cl)cn2)cc1.Cl , can you help?
(A) 9.56

---

Assay: Pharmacokinetic parameters (Tmax, AUClast, Cmax) of DD217 in phase II trial patients
Format: in vivo, human (patients undergoing knee replacement surgery)
Conditions: human, plasma, oral, 60 mg; CYP2C9 *2/*3, PM (n = 2); mean ± SD; read-out: AUClast
result type: AUC(0-t)
Record the result as number plus unit.

(Q) Looking for the measured AUC(0-t) of CC(=N)N(C)c1ccc(C(=O)Nc2ccc(C)cc2C(=O)Nc2ccc(Cl)cn2)cc1.Cl [DD217] , can you help?
(A) 177 ng·h/mL

---

Assay: Pharmacokinetic parameters (Tmax, AUClast, Cmax) of DD217 in phase II trial patients
Format: in vivo, human (patients undergoing knee replacement surgery)
Details: human, plasma, oral, 60 mg; CYP2C9 *2/*3, PM (n = 2); mean ± SD; read-out: Cmax
result type: Cmax (ng/mL)
Number only, in ng/mL; omit the unit.

(Q) Looking for the measured Cmax of CC(=N)N(C)c1ccc(C(=O)Nc2ccc(C)cc2C(=O)Nc2ccc(Cl)cn2)cc1.Cl , can you help?
(A) 11.3

---

Test: Pharmacokinetic parameters (Tmax, AUClast, Cmax) of DD217 in phase II trial patients
Format: in vivo, human (patients undergoing knee replacement surgery)
Conditions: human, plasma, oral, 60 mg/day; ABCB1 rs1045642 C/C (n 3); read-out: AUClast (SD)
result type: AUC(0-t) (ng·h/mL)
Number only, in ng·h/mL; omit the unit.

(Q) Looking for the measured AUC(0-t) of CC(=N)N(C)c1ccc(C(=O)Nc2ccc(C)cc2C(=O)Nc2ccc(Cl)cn2)cc1.Cl [DD217] , can you help?
(A) 197

---

Assay: Pharmacokinetic parameters (Tmax, AUClast, Cmax) of DD217 in phase II trial patients
Format: in vivo, human (patients undergoing knee replacement surgery)
Settings: human, plasma, im, 40 mg; CYP2C19 *1/*2, IM (n = 1); read-out: Tmax
result type: Tmax (h)
Number only, in h; omit the unit.

(Q) Looking for the measured Tmax of CC(=N)N(C)c1ccc(C(=O)Nc2ccc(C)cc2C(=O)Nc2ccc(Cl)cn2)cc1.Cl [DD217] , can you help?
(A) 4

---

Assay: Pharmacokinetic parameters (Tmax, AUClast, Cmax) of DD217 in phase II trial patients
Assay type: in vivo, human (patients undergoing knee replacement surgery)
Conditions: human, plasma, oral, 40 mg; CYP2C19 *1/*17, *17/*17, RM + UM (n = 9); mean ± SD; read-out: Cmax
Method: The design, eligibility criteria, and outcomes of the phase II clinical trial evaluating the safety and tolerability of DD217 (NCT05189002, ClinicalTrials.gov) have been described previously. […] To characterize the pharmacokinetic profile of DD217 in our study, three parameters were assessed: Cmax, Tmax, and AUClast.
result type: Cmax (ng/mL)
Number only, in ng/mL; omit the unit.

(Q) Looking for the measured Cmax of CC(=N)N(C)c1ccc(C(=O)Nc2ccc(C)cc2C(=O)Nc2ccc(Cl)cn2)cc1.Cl , can you help?
(A) 5.8
